meta.source: the NIST ThermoML archive (doi:10.1021/je800069z)

# COND: 333.15 K, Ring tensiometer
Hi there, I'd appreciate the recorded surface tension liquid-gas for every entry that follows.
One number for each entry, in mN/m.

[[record]]
structure_as_smiles = "CCCn1cc[n+](C)c1.O=S(=O)([N-]S(=O)(=O)C(F)(F)F)C(F)(F)F"
endpoint_label = "surface tension liquid-gas"
numeric_readout = 32.79

[[record]]
structure_as_smiles = "CCCCCn1cc[n+](C)c1.O=S(=O)([N-]S(=O)(=O)C(F)(F)F)C(F)(F)F"
endpoint_label = "surface tension liquid-gas"
numeric_readout = 30.77

[[record]]
structure_as_smiles = "CCCCCCCCCCn1cc[n+](C)c1.O=S(=O)([N-]S(=O)(=O)C(F)(F)F)C(F)(F)F"
endpoint_label = "surface tension liquid-gas"
numeric_readout = 29.5


# per-item lookup of surface tension liquid-gas; items listed below
1. CCn1cc[n+](C)c1.O=S(=O)([N-]S(=O)(=O)C(F)(F)F)C(F)(F)F
2. CCCCCCCCn1cc[n+](C)c1.O=S(=O)([N-]S(=O)(=O)C(F)(F)F)C(F)(F)F

Key:
1. 34.96
2. 29.4

###

# COND: 313.15 K, Ring tensiometer
ENDPOINT LABEL: surface tension liquid-gas (mN/m)
Give bare numbers, in mN/m.

[[record]]
structure_as_smiles = "CCCCCC[n+]1ccn(C)c1.O=S(=O)([N-]S(=O)(=O)C(F)(F)F)C(F)(F)F"
numeric_readout = 31.2

[[record]]
structure_as_smiles = "CCCCCCCCn1cc[n+](C)c1.O=S(=O)([N-]S(=O)(=O)C(F)(F)F)C(F)(F)F"
numeric_readout = 30.57


Please give surface tension liquid-gas, item by item, for the list that follows.
1. CCCCCCCn1cc[n+](C)c1.O=S(=O)([N-]S(=O)(=O)C(F)(F)F)C(F)(F)F
2. CCn1cc[n+](C)c1.O=S(=O)([N-]S(=O)(=O)C(F)(F)F)C(F)(F)F
3. CCCCCn1cc[n+](C)c1.O=S(=O)([N-]S(=O)(=O)C(F)(F)F)C(F)(F)F

Key:
1. 30.66
2. 35.92
3. 31.83

For every listed record, write down its surface tension liquid-gas.
1. CCCn1cc[n+](C)c1.O=S(=O)([N-]S(=O)(=O)C(F)(F)F)C(F)(F)F
2. CCCCCCCCCCn1cc[n+](C)c1.O=S(=O)([N-]S(=O)(=O)C(F)(F)F)C(F)(F)F
3. CCCC[n+]1ccn(C)c1.O=S(=O)([N-]S(=O)(=O)C(F)(F)F)C(F)(F)F

Key:
1. 33.73
2. 30.7
3. 32.5

###

# COND: 343.15 K, Ring tensiometer
ENDPOINT LABEL: surface tension liquid-gas (mN/m)
Answers are plain numbers, in mN/m.

[[record]]
structure_as_smiles = "CCCCCC[n+]1ccn(C)c1.O=S(=O)([N-]S(=O)(=O)C(F)(F)F)C(F)(F)F"
numeric_readout = 29.62

[[record]]
structure_as_smiles = "CCCCCCCCn1cc[n+](C)c1.O=S(=O)([N-]S(=O)(=O)C(F)(F)F)C(F)(F)F"
numeric_readout = 28.86

[[record]]
structure_as_smiles = "CCCCCCCn1cc[n+](C)c1.O=S(=O)([N-]S(=O)(=O)C(F)(F)F)C(F)(F)F"
numeric_readout = 28.95

[[record]]
structure_as_smiles = "CCCn1cc[n+](C)c1.O=S(=O)([N-]S(=O)(=O)C(F)(F)F)C(F)(F)F"
numeric_readout = 32.18

[[record]]
structure_as_smiles = "CCCCCCCCCCn1cc[n+](C)c1.O=S(=O)([N-]S(=O)(=O)C(F)(F)F)C(F)(F)F"
numeric_readout = 28.68


Quick request: surface tension liquid-gas for each listed item, please.
1. CCCC[n+]1ccn(C)c1.O=S(=O)([N-]S(=O)(=O)C(F)(F)F)C(F)(F)F
2. CCCCCn1cc[n+](C)c1.O=S(=O)([N-]S(=O)(=O)C(F)(F)F)C(F)(F)F
3. CCn1cc[n+](C)c1.O=S(=O)([N-]S(=O)(=O)C(F)(F)F)C(F)(F)F

Key:
1. 30.9
2. 30.31
3. 34.57

###

# COND: 293.15 K, Ring tensiometer
Provide the recorded surface tension liquid-gas for the entries that follow.
Numbers only, in mN/m.

Example cases with answers are listed next.
[[record]]
structure_as_smiles = "CCCn1cc[n+](C)c1.O=S(=O)([N-]S(=O)(=O)C(F)(F)F)C(F)(F)F"
endpoint_label = "surface tension liquid-gas"
numeric_readout = 34.87

[[record]]
structure_as_smiles = "CCCCCC[n+]1ccn(C)c1.O=S(=O)([N-]S(=O)(=O)C(F)(F)F)C(F)(F)F"
endpoint_label = "surface tension liquid-gas"
numeric_readout = 32.31

[[record]]
structure_as_smiles = "CCCC[n+]1ccn(C)c1.O=S(=O)([N-]S(=O)(=O)C(F)(F)F)C(F)(F)F"
endpoint_label = "surface tension liquid-gas"
numeric_readout = 33.6


Look up surface tension liquid-gas for the entries below, preserving their order.
1. CCCCCCCCCCn1cc[n+](C)c1.O=S(=O)([N-]S(=O)(=O)C(F)(F)F)C(F)(F)F
2. CCCCCCCCn1cc[n+](C)c1.O=S(=O)([N-]S(=O)(=O)C(F)(F)F)C(F)(F)F
3. CCn1cc[n+](C)c1.O=S(=O)([N-]S(=O)(=O)C(F)(F)F)C(F)(F)F
4. CCCCCn1cc[n+](C)c1.O=S(=O)([N-]S(=O)(=O)C(F)(F)F)C(F)(F)F
5. CCCCCCCn1cc[n+](C)c1.O=S(=O)([N-]S(=O)(=O)C(F)(F)F)C(F)(F)F

Key:
1: 32.12; 2: 31.93; 3: 36.94; 4: 32.9; 5: 32

###

# COND: 323.15 K, Ring tensiometer
Exercise: state measured surface tension liquid-gas for each of the molecules provided.
Numbers only, in mN/m.

Some solved entries appear below for comparison.
[[record]]
structure_as_smiles = "CCCCCCCn1cc[n+](C)c1.O=S(=O)([N-]S(=O)(=O)C(F)(F)F)C(F)(F)F"
endpoint_label = "surface tension liquid-gas"
unit_symbol = "mN/m"
numeric_readout = 30.02

[[record]]
structure_as_smiles = "CCCCCCCCCCn1cc[n+](C)c1.O=S(=O)([N-]S(=O)(=O)C(F)(F)F)C(F)(F)F"
endpoint_label = "surface tension liquid-gas"
unit_symbol = "mN/m"
numeric_readout = 30.1

[[record]]
structure_as_smiles = "CCCCCC[n+]1ccn(C)c1.O=S(=O)([N-]S(=O)(=O)C(F)(F)F)C(F)(F)F"
endpoint_label = "surface tension liquid-gas"
unit_symbol = "mN/m"
numeric_readout = 30.6


Hi team, please reply with surface tension liquid-gas for each item in this list.
1. CCCCCCCCn1cc[n+](C)c1.O=S(=O)([N-]S(=O)(=O)C(F)(F)F)C(F)(F)F
2. CCn1cc[n+](C)c1.O=S(=O)([N-]S(=O)(=O)C(F)(F)F)C(F)(F)F
3. CCCCCn1cc[n+](C)c1.O=S(=O)([N-]S(=O)(=O)C(F)(F)F)C(F)(F)F
4. CCCn1cc[n+](C)c1.O=S(=O)([N-]S(=O)(=O)C(F)(F)F)C(F)(F)F
5. CCCC[n+]1ccn(C)c1.O=S(=O)([N-]S(=O)(=O)C(F)(F)F)C(F)(F)F

Key:
1. 29.98
2. 35.51
3. 31.27
4. 33.31
5. 31.92

###

# COND: 333.15 K, Ring tensiometer
ENDPOINT LABEL: surface tension liquid-gas (mN/m)
One number for each entry, in mN/m.

Sample answers from the record:
[[record]]
structure_as_smiles = "CCCCCCCn1cc[n+](C)c1.O=S(=O)([N-]S(=O)(=O)C(F)(F)F)C(F)(F)F"
endpoint_label = "surface tension liquid-gas"
numeric_readout = 29.5

[[record]]
structure_as_smiles = "CCCC[n+]1ccn(C)c1.O=S(=O)([N-]S(=O)(=O)C(F)(F)F)C(F)(F)F"
endpoint_label = "surface tension liquid-gas"
numeric_readout = 31.35


Now let's try a different one.
Exercise: Sample `CCCCCC[n+]1ccn(C)c1.O=S(=O)([N-]S(=O)(=O)C(F)(F)F)C(F)(F)F` — what was its surface tension liquid-gas?
Key: 30.16
